The measurements presented in this section are drawn from PubChem BioAssay (NCI).

For each entry below, report its growth value.
Test system: HS 578T breast
PROTOCOL_TEXT: NCI-60 one-dose screen, 48 h (100 = growth as untreated, 0 = no growth, -100 = all killed)
APPLIED_CONDITIONS: 10 µM unless noted
Compounds without any hit were thinned out: in the full panel of roughly 83,000, 20% have a hit.
Give bare numbers, in %.

{"COMPOUND": "CC(C)CC(NC(=O)CN(Cc1ccccc1)S(C)(=O)=O)C(=O)O (stereo not drawn)", "RECORDED_METRIC": "growth", "RESULT_VALUE": 91.6}
{"COMPOUND": "COC(=O)[C@]12CC[C@@H](C)[C@H](C)[C@@H]1C1=CC[C@@H]3[C@@]4(C)C(C=O)=C[C@@](C)(COC(=O)c5ccco5)C4=CC[C@@]3(C)[C@]1(C)CC2", "RECORDED_METRIC": "growth", "RESULT_VALUE": 3.14}
{"COMPOUND": "CNC(=O)NCC1OC(n2cnc3c(NC(=O)Nc4ccccc4)ncnc32)C(O[Si](C)(C)C(C)(C)C)C1CC(=O)N(C)OC (stereo not drawn)", "RECORDED_METRIC": "growth", "RESULT_VALUE": 3.64}
{"COMPOUND": "CN(C)CCNc1nc2ccccc2c2c1c1c(n2Cc2ccccc2)-c2ccccc2C1=O", "RECORDED_METRIC": "growth", "RESULT_VALUE": -90.4}
{"COMPOUND": "CCCCc1ccc(Nc2ccc(Nc3ccc(CCCC)cc3S(=O)(=O)O)c3c2C(=O)c2ccccc2C3=O)c(S(=O)(=O)O)c1", "RECORDED_METRIC": "growth", "RESULT_VALUE": 102}
{"COMPOUND": "CC/C=C\\C[C@H](O)C/C=C1/C(=O)C=C[C@@H]1C/C=C\\CCCCO", "RECORDED_METRIC": "growth", "RESULT_VALUE": 75.6}
{"COMPOUND": "CCOC(=O)c1c2ncccc2n2c(=O)n(-c3ccccc3C)nnc12", "RECORDED_METRIC": "growth", "RESULT_VALUE": 112}

// next entry
**Q:** Look at this compound and give its reported growth. CC(=O)N1C(=S)NC(=O)C1Cn1c(-c2ccccc2)nc2ccccc21 (stereo not drawn)
**A:** 96

----------
System: HCT-116 colon
PROTOCOL_TEXT: NCI-60 one-dose screen, 48 h (100 = growth as untreated, 0 = no growth, -100 = all killed)
APPLIED_CONDITIONS: 10 µM unless noted
About 83,000 compounds went through this panel and 20% of them were active in at least one assay; those are over-represented in the sample as a whole.
Classify as follows. Reported growth greater than or equal to 10%: True. Reported growth below: False.

{"COMPOUND": "O=C1/C(=C\\c2c[nH]c3ccccc23)c2ccccc2N1c1c(Cl)cccc1Cl", "TARGET_OR_TEST_SYSTEM": "HCT-116 colon", "ASSIGNED_CATEGORY": "False"}
{"COMPOUND": "COC(=O)[C@]12CC[C@@H](C)[C@H](C)[C@@H]1C1=CC[C@@H]3[C@@]4(C)C(C=O)=C[C@@](C)(COC(C)=O)[C@@H]4[C@H](O)C[C@@]3(C)[C@]1(C)CC2", "TARGET_OR_TEST_SYSTEM": "HCT-116 colon", "ASSIGNED_CATEGORY": "False"}
{"COMPOUND": "c1cc2ccc3cc2cc1CNCCOCCNCc1ccc2ccc(cc2c1)CNCCOCCNC3", "TARGET_OR_TEST_SYSTEM": "HCT-116 colon", "ASSIGNED_CATEGORY": "False"}
{"COMPOUND": "COc1cccc(-c2nn(-c3ccccc3)cc2-c2ccnc(NCCCNC(=O)c3ccc(F)cc3)c2)c1", "TARGET_OR_TEST_SYSTEM": "HCT-116 colon", "ASSIGNED_CATEGORY": "True"}

**Q:** Confirm if growth reported for the compound O=C(c1ccccc1)c1c(/C=C/c2ccccc2)nc2ccccc2c1/C=C/c1ccc(Br)cc1 is 10% or above.
**A:** True

**Q:** Confirm if growth reported for the compound COc1ccc(OC)c2c1[nH]c(=O)c1c3ncccc3cn21 is 10% or above.
**A:** True

**Q:** Confirm if growth reported for the compound COc1cc(-c2n/c(=C\c3c(O)[nH]c4ccc(Cl)cc34)cc3c2=Nc2ccccc2-3)cc(OC)c1OC is 10% or above.
**A:** False

**Q:** Confirm if growth reported for the compound O=C1c2cccc(NCCN=Cc3cc([N+](=O)[O-])ccc3O)c2C(=O)c2c(NCCN=Cc3cc([N+](=O)[O-])ccc3O)cccc21 is 10% or above.
**A:** True

**Q:** Confirm if growth reported for the compound O=C(O)CN1C(=O)CCC1=O is 10% or above.
**A:** True

**Q:** Confirm if growth reported for the compound CCCCCCCCCOc1c(OC)cc(C2CC(=O)Nc3c2c(C)nn3-c2nc3ccccc3[nH]2)cc1OC (stereo not given) is 10% or above.
**A:** False

**Q:** Confirm if growth reported for the compound COc1cccc(-c2nn(-c3ccccc3)cc2-c2ccnc(NCCNC(=O)c3ccccc3)c2)c1 is 10% or above.
**A:** True
